# reported Ki; entries follow
# system_tested: human 5-HT2A receptor (Homo sapiens (Human), UniProt P28223)
# protocol_description: biochemical
# Format: binding

Please review the following examples before continuing.
{"compound_structure_string": "[2H]C([2H])([2H])NCc1cc(OCc2ccccc2)n(CC2CCCCC2)n1", "Ki": "3.6 nM"}
{"compound_structure_string": "[2H]C([2H])([2H])NC([2H])([2H])c1cc(OCc2ccccc2)n(CC2CCCCC2)n1", "Ki": "2.3 nM"}
{"compound_structure_string": "Cl.[2H]C([2H])(Oc1cc(CNC)nn1CC1CCCC1)c1cc(Cl)ccc1F", "Ki": "1.7 nM"}

Please turn your attention to the following entry.
Prompt: Quick one: Ki for [2H]C([2H])(NC)c1cc(OCc2ccccc2)n(CC2CCCCC2)n1 ?
Response: 2.9 nM

====

# system_tested: UniProtKB P31645
# protocol_description: Human serotonin transporter (SERT) binding test
Where a name gives a salt, the structure may show the parent alone.
Please note: Ki exactly at 1 nM is no (0). Only values below 1 nM get yes (1).

Consider the following illustrative entries.
{"compound": "[2H]C([2H])(NC)c1cc(OCc2ccccc2)n(CC2CCCCC2)n1", "qualitative_label": "no (0)"}
{"compound": "CNCc1cc(OCc2ccccc2Cl)n(C(C)C2CCCCC2)n1 (stereo not drawn)", "qualitative_label": "yes (1)"}
{"compound": "[2H]C([2H])([2H])NCc1cc(OCc2ccccc2)n(CC2CCCCC2)n1", "qualitative_label": "no (0)"}
{"compound": "[2H]C([2H])([2H])NC([2H])([2H])c1cc(OCc2ccccc2)n(CC2CCCCC2)n1", "qualitative_label": "no (0)"}
{"compound": "Cl.[2H]C([2H])(Oc1cc(CNC)nn1CC1CCCC1)c1cc(Cl)ccc1F", "qualitative_label": "no (0)"}

# input for lookup
Prompt: Dear colleague, could you confirm whether Ki of [2H]C([2H])(Oc1cc(CNC)nn1CC1CCCC1)c1cc(F)ccc1F [Example 495, Hydrochloride] falls below 1 nM? Thanks.
Response: yes (1)

This collection of values is drawn from patent US11576897B2.
